System: PC-3
experimental-protocol: Antiproliferative activity against human PC3 cells at 5 to 50 uM after 24 hrs by MTT assay
Assay type: functional, cell-based
Active and inactive are the calls of the source. The rule behind the calls is not given here.

>  <smiles-record>
CCCCO[C@H]1CC/C(C)=C/[C@@H]2OC(=O)C(C)=C2CC/C(C)=C/CC[C@]1(C)O

>  <study-target>
PC-3

>  <Activity>
inactive

$$$$
>  <smiles-record>
C=C1CC/C=C(\C)CCC2=C(C)C(=O)O[C@H]2/C=C(\C)CC[C@@H]1OC(=O)NCCCCC

>  <study-target>
PC-3

>  <Activity>
inactive

$$$$
>  <smiles-record>
CC1=C2CC/C(C)=C/CC[C@]3(C)O[C@H]3CC/C(C)=C/[C@@H]2OC1

>  <study-target>
PC-3

>  <Activity>
inactive

$$$$
>  <smiles-record>
C=C1CC/C=C(\C)CCC2=C(C)C(=O)O[C@H]2/C=C(\C)CC[C@@H]1OC(=O)NCCCC

>  <study-target>
PC-3

>  <Activity>
inactive

$$$$
>  <smiles-record>
C=C1CC/C=C(\C)CCC2=C(C)C(=O)O[C@H]2/C=C(\C)CC[C@@H]1OC(=O)Nc1ccccc1

>  <study-target>
PC-3

>  <Activity>
inactive

$$$$
>  <smiles-record>
C=C1CC/C=C(\C)CCC2=C(C)C(=O)O[C@H]2/C=C(\C)CC[C@@H]1OC(=O)NC1CCCCC1

>  <study-target>
PC-3

>  <Activity>
inactive

$$$$
